TARGET_OR_TEST_SYSTEM: 3',5'-cyclic-AMP phosphodiesterase 4D (Homo sapiens, UniProt Q08499)
Sequence (Q08499 whole entry): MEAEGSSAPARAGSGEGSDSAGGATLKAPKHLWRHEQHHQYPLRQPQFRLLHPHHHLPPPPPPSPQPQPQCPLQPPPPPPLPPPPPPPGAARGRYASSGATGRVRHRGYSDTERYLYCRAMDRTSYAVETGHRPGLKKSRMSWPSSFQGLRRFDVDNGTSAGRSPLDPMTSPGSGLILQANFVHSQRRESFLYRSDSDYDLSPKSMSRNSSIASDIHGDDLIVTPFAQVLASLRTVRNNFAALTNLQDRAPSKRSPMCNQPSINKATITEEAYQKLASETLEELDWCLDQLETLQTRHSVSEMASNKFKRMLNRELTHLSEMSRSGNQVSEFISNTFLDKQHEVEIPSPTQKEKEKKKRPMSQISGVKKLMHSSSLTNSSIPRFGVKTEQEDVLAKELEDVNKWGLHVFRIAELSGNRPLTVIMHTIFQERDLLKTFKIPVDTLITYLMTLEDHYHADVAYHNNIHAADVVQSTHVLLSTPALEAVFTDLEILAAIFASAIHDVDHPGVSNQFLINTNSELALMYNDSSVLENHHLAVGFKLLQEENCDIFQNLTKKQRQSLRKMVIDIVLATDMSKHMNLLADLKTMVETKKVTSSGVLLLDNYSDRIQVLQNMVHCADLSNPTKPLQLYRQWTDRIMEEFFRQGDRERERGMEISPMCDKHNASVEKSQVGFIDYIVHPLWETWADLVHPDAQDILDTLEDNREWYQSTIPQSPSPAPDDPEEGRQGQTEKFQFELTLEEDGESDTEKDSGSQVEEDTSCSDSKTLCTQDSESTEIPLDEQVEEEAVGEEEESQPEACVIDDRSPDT
METHOD: Inhibition of PDE4D2 (unknown origin) by preincubated for 30 mins before substrate addition and measured after 60 mins by IMAP TR-FRET phosphodiesterase evaluation assay
Below, each entry is listed alongside its reported pIC50.
On this scale, pIC50 is minus log10 of a concentration expressed in M (mol/L).

Sample answers from the record:
[[record]]
chemical_structure = "COCc1ccc2c(c1C#Cc1ccc(O)cc1)C(c1ccc(OC)cc1)(c1ccc(OC)cc1)c1cc(O)ccc1-2"
reported_value = 5.55

[[record]]
chemical_structure = "COc1ccc([C@@]2(c3ccc(O)cc3)c3cc(O)ccc3-c3ccc(C)c(C#Cc4ccc(O)cc4)c32)cc1"
reported_value = 4.71

[[record]]
chemical_structure = "COCc1ccc2c(c1C#Cc1ccc(O)cc1)[C@](c1ccc(O)cc1)(c1ccc(OC)cc1)c1cc(O)ccc1-2"
reported_value = 4.47


// switching to the query compound
Lab note: COc1ccc(C2(c3ccc(OC)cc3)c3cc(O)ccc3-c3ccc(C)c(C#Cc4ccc(O)cc4)c32)cc1 gave pIC50 of 4.61
